These measurements were taken from paper PMC11467045.

# measurement-target: T1, GID4^Δ1–115 (human, UniProt Q8IVV7 116-300)
# T1 construct: also called recombinant GID4 lacking its N-terminal domain; source: E. coli Rosetta 2(DE3)pLysS, purified (Strep-Tactin, Ulp1 cleavage, size-exclusion chromatography); not shown: 2xStrepII, N-terminal, cleaved; Smt3, N-terminal, cleaved
# T1 sequence (looked up): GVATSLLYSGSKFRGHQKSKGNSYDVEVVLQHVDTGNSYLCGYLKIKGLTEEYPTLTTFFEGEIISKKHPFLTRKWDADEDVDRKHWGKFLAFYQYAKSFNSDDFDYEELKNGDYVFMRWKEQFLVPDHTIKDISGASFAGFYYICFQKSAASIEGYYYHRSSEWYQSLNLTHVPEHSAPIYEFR
# assay-info: fluorescence polarisation; saturation binding: 20 nM TAMRA-labeled peptide with indicated GID4^Δ1–115 concentrations, 10 min, FP buffer (20 mM MOPS pH 7.6, 100 mM NaCl, 25 mM D-trehalose, 1% glycerol, 0.01% Triton X-100, 0.1 g/l BSA); one site-specific binding model
# condition-set: both partners purified
Where no end group is shown, it is not given here.
readout: pKd
The read-out pKd is expressed as -log10 of concentration in moles per litre.

Recorded pKd of PGLWKS-{TAMRA} (control degron peptide (Dong et al, 2018); also called TAMRA-labeled control peptide PGLWKS) [PGLWKS-TAMRA] , please.
5.62
